Source: PubChem BioAssay AID1996

conditions: buffer; pH 7.4; 200.0 µM
Items are presented alongside their recorded log10(solubility kinetic).
Readout type: log10(solubility kinetic) (log10 of the value in µg/mL)

• COC(=O)[C@H](Cc1ccccc1)NC(=O)NC(C)CCc1ccccc1 (stereo partly drawn) = 1.70
• Cc1ccc(NC(=O)CN2CCOCC2)cc1C = 1.55
• c1ccc2c(c1)CCc1c-2nc2ccccc2c1N1CCOCC1 = 1.02
• CCc1ccc(C)c(OC(=O)c2cncc(Br)c2)c1 = 0.32
• CC(=O)c1ccc(NC(=S)Nc2cccc(Cl)c2C)cc1 = 1.61
• CC1CCN(C(=O)CCNC(=O)c2ccccc2)CC1 = 1.57
• O=[N+]([O-])c1ccccc1Nc1ccccc1 = 0.04
• Cc1csc(NC(=O)c2cnc3ccccc3n2)n1 = 1.10
• COC(=O)c1c(C)oc(C)c1S(=O)(=O)Nc1ccc(C(C)C)cc1 = 0.86
• Cc1cc(Cl)nc(SCC(=O)c2ccccc2)n1 = 1.47
• CC1(C(=O)OCC(=O)Nc2ccc(S(=O)(=O)N3CCOCC3)cc2)CC1(Cl)Cl (stereo not drawn) = 1.78
• CCCC12CN3CC(C)(CN(C1)C3c1cccs1)C2=O (stereo not drawn) = 1.59
• Cc1ccc(NC(=O)CC(C)c2ccccc2)cc1S(=O)(=O)N1CCOCC1 (stereo not drawn) = 1.68
• N#Cc1ccc(OCC(=O)Nc2ccc3[nH]c(=O)[nH]c3c2)cc1 = 0.86
• CC(=O)N(C)c1ccc(NC(=O)Cc2cccs2)cc1 = 1.63
• CCCc1cc(C(=O)Nc2ccc(C#N)cc2)no1 = 0.38
• CNC(=O)c1cc(C(=O)c2ccc(Cl)cc2)c(Br)[nH]1 = 0.23
• O=C(c1ccc2ccccc2n1)N1CCN(S(=O)(=O)c2ccc(Cl)cc2)CC1 = 1.44
• COc1ccc(CC(=O)OCC(=O)Nc2ccc(Cl)cc2C)cc1 = 0.95
• O=C1CC2C(=O)NCCN2C(=NC(=O)c2ccccc2)N1 (stereo not drawn) = 1.61
• COc1ccc(C(C)NC(=O)c2ccncc2)cc1 (stereo not drawn) = 1.56
• COc1ccc(CCNC(=O)C2(c3ccccc3)CC2)cc1 = 1.64
• O=C(COC(=O)c1cccc(OC(F)F)c1)Nc1cccc(S(=O)(=O)N2CCCC2)c1 = 1.04
• CCCCN(CC)Cc1c(O)ccc2c(-c3ccccc3)cc(=O)oc12 = 1.56
• CCC(=O)Nc1sc2c(c1C#N)CCC2 = 1.09
• CN(C(=O)COC(=O)c1cc2ccccc2cc1O)c1ccccc1 = 0.53
• CC(=O)/C=C/c1ccccc1Oc1c(F)c(F)nc(F)c1F = 1.25
• CCCOc1ccc(Cc2c(O)nc(SC)[nH]c2=O)cc1 = 1.65
• S=C(Nc1ccccc1)N(Cc1ccccc1)Cc1ccncc1 = 1.59
• O=C(NCC1CCCO1)c1ccc(NC(=O)c2cc(F)c(F)cc2Cl)cc1 (stereo not drawn) = 0.72
• COC(=O)C1=CNC=C(C(=O)OC)C1c1cccc2ccccc12 = 0.41

---

Items are presented alongside their recorded solubility kinetic.
conditions: buffer; pH 7.4; 200.0 µM
Readout type: solubility kinetic

* CCN(CC(=O)NC1CC1)S(=O)(=O)c1ccc(OC)cc1 | > 46.9 µg/mL
* O=C(O)c1cccc(N=C2NC(=O)C(CO)(CO)S2)c1 | > 44.4 µg/mL
* CC(C)N(Cc1ccccc1)S(=O)(=O)c1cccs1 | 13 µg/mL
* NS(=O)(=O)c1ccc(NC(=S)N2CCCC2)cc1 | > 42.8 µg/mL
* Cc1ccc(NC(=O)Cn2c(=O)oc3ccccc32)c(C)c1 | 13.9 µg/mL
* COc1ccccc1/C=C/CN1CCSCC1 | > 37.4 µg/mL
